Assay: Inhibition of GST-tagged SARS-CoV-2 main protease expressed in Escherichia coli BL21 competent cells using DABCYL-Val-Asn-Ser-Thr-Leu-Gln-Ser-Gly-Leu-Arg-Lys-EDANS as substrate measured every 10 mins for 1 hr by FRET assay
Design: species or system Severe acute respiratory syndrome coronavirus 2
pIC50: −log10 of the molar value.
Measured pIC50 accompanies every entry in the list below.
Measure name: pIC50

Line notation: Cc1ccc(-n2[se]c3ccccc3c2=O)cc1C
Measure name: pIC50
Result comparator: <
Recorded measurement: 5.00
--
Line notation: O=c1c2ccccc2[se]n1Cc1ccc(C(F)(F)F)cc1
Measure name: pIC50
Result comparator: <
Recorded measurement: 5.00
--
Line notation: COc1ccc(Cn2[se]c3ccccc3c2=O)cc1
Measure name: pIC50
Result comparator: <
Recorded measurement: 5.00
--
Line notation: O=c1c2ccccc2[se]n1-c1ccccc1F
Measure name: pIC50
Result comparator: <
Recorded measurement: 5.00
--
Line notation: O=c1c2ccccc2[se]n1-c1ccc(F)cc1C(F)(F)F
Measure name: pIC50
Result comparator: <
Recorded measurement: 5.00
--
Line notation: COc1ccc(Cl)cc1-n1[se]c2ccccc2c1=O
Measure name: pIC50
Result comparator: <
Recorded measurement: 5.00
--
Line notation: COc1cccc(-n2[se]c3ccccc3c2=O)c1
Measure name: pIC50
Result comparator: <
Recorded measurement: 5.00
--
Line notation: N#Cc1cccc(-n2[se]c3ccccc3c2=O)c1
Measure name: pIC50
Result comparator: =
Recorded measurement: 6.42
--
Line notation: CSc1ccccc1-n1[se]c2ccccc2c1=O
Measure name: pIC50
Result comparator: <
Recorded measurement: 5.00
--
Line notation: CCCCCn1[se]c2ccccc2c1=O
Measure name: pIC50
Result comparator: <
Recorded measurement: 5.00
--
Line notation: COc1ccc2c(=O)n(-c3ccccc3)[se]c2c1
Measure name: pIC50
Result comparator: =
Recorded measurement: 5.19
--
Line notation: O=c1c2ccccc2[se]n1-c1cc(Cl)cc(Cl)c1
Measure name: pIC50
Result comparator: =
Recorded measurement: 6.19
--
Line notation: O=c1c2ccccc2[se]n1-c1ccc(F)cc1
Measure name: pIC50
Result comparator: =
Recorded measurement: 5.56
--
Line notation: O=c1c2ccccc2[se]n1-c1ccc(Cl)cc1OC(F)(F)F
Measure name: pIC50
Result comparator: <
Recorded measurement: 5.00
--
Line notation: CCc1ccc(-n2[se]c3ccccc3c2=O)cc1
Measure name: pIC50
Result comparator: =
Recorded measurement: 5.21
--
Line notation: COc1ccc(-n2[se]c3ccccc3c2=O)cc1
Measure name: pIC50
Result comparator: =
Recorded measurement: 5.90
--
Line notation: Cc1ccc(-n2[se]c3ccccc3c2=O)cc1
Measure name: pIC50
Result comparator: =
Recorded measurement: 5.64
--
Line notation: O=c1c2ccccc2[se]n1-c1cccc(C(F)(F)F)c1
Measure name: pIC50
Result comparator: =
Recorded measurement: 5.56
